Tested on: HeLa Kyoto;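 further: HeLa Kyoto cells arrested at G1/S by double thymidine block, proteins quantified by TMT10plex mass spectrometry in mild NP-40 versus SDS extracts, three biological replicates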
Test: solubility in G1/S (NP-40 vs SDS abundance) (log2 ratio); higher = more soluble
Details: cell cycle stage: G1/S
Could you please report measured solubility in G1/S (log2) for the items listed next?
One number for each entry.

| seq | solubility in G1/S (log2) |
| --- | --- |
| MADHSFSDGVPSDSVEAAKNASNTEKLTDQVMQNPRVLAALQERLDNVPHTPSSYIETLPKAVKRRINALKQLQVRCAHIEAKFYEEVHDLERKYAALYQPLFDKRREFITGDVEPTDAESEWHSENEEEEKLAGDMKSKVVVTEKAAATAEEPDPKGIPEFWFTIFRNVDMLSELVQEYDEPILKHLQDIKVKFSDPGQPMSFVLEFHFEPNDYFTNSVLTKTYKMKSEPDKADPFSFEGPEIVDCDGCTIDWKKGKNVTVKTIKKKQKHKGRGTVRTITKQVPNESFFNFFNPLKASGDGESLDEDSEFTLASDFEIGHFFRERIVPRAVLYFTGEAIEDDDNFEEGEEGEEEELEGDEEGEDEDDAEINPKV [NAP1L4] | 0.455 |

Moving on to the next sequence.
[Q] Give the value of solubility in G1/S (log2) reported for the following: MAQQQMTSSQKALMLELKSLQEEPVEGFRITLVDESDLYNWEVAIFGPPNTLYEGGYFKAHIKFPIDYPYSPPTFRFLTKMWHPNIYENGDVCISILHPPVDDPQSGELPSERWNPTQNVRTILLSVISLLNEPNTFSPANVDASVMFRKWRDSKGKDKEYAEIIRKQVSATKAEAEKDGVKVPTTLAEYCIKTKVPSNDNSSDLLYDDLYDDDIDDEDEEEEDADCYDDDDSGNEES [UBE2R2]
[A] 0.302
